# EXPERIMENT: chemical genetic growth profiling, strain panel (AID 1159580);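 also: tested at 20 µM; growth read once vehicle control cultures reached saturation at 30 °C; 1 = growth at the plate median or of vehicle wells; lower values mean less growth of the strain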
# DETAILS: S. cerevisiae deletion strains, growth OD, locus YMR129W, hits give low values
About 2,000 (36%) of roughly 5,500 compounds were called active. Inconclusive results (about 18%) are left out. The list shows a part of the results.
METRIC NAME: normalized growth
Keep it simple and answer with nothing but the number.

Name the recorded normalized growth of the item C[C@]12C=CC(=O)C=C1CCC1C2CC[C@]2(C)C(=O)CCC12 (stereo partly specified) in your answer. 0.991

Using known records, supply normalized growth for COc1cc(O)c(C(C)=O)c(OC)c1 1.01

Determine its reported normalized growth: Cn1c(=O)[nH]c(=O)c2[nH]cnc21 0.99

Identify normalized growth associated with the compound c1coc(CNc2ncnc3nc[nH]c23)c1 0.988

Given the compound C[C@]12C=CC(=O)C=C1CCC1C2C(=O)C[C@@]2(C)C1CC[C@]2(O)C(=O)CO (stereo partly specified) , write its reported normalized growth. 1

Tell us which normalized growth value is on record for O=c1[nH]c2ccccc2n1CCCN1CCC(n2c(=O)[nH]c3cc(Cl)ccc32)CC1 0.982

Return normalized growth for the following compound: O=C(O)c1cc2cc(Cl)ccc2[nH]1 0.993

Annotate the compound C[N+]1(C)CCc2cc3c(cc2[C@H]1C1OC(=O)c2c1ccc1c2OCO1)OCO3 (stereo partly specified) with its measured normalized growth. 1

Tell me measured normalized growth for O=c1[nH]c2ccccc2n1C1CCN(CCCC(c2ccc(F)cc2)c2ccc(F)cc2)CC1 please. 0.966

Indicate the recorded normalized growth value for this compound: Cc1cccc(N(C)C(=S)Oc2ccc3ccccc3c2)c1 0.991

Please report the measured normalized growth for O=C(CCCN1CC=C(n2c(=O)[nH]c3ccccc32)CC1)c1ccc(F)cc1 0.987

Value source: PubChem BioAssay AID1159580
